PROCEDURE DETAILS: NCI Yeast Anticancer Drug Screen. Data for the mec2-1 strain (AID 157)
CONDITION NOTES: S. cerevisiae mec2-1 strain, at 50.0 µM, stronger effect = higher value
Compounds without any hit were thinned out: in the full panel of roughly 79,000, 15% have a hit.
ASSAY ENDPOINT: growth inhibition (%)
Kindly answer with a numeric value in %, unit omitted.

In the examples that follow, each entry is paired with its recorded growth inhibition.
[[record]]
molecule = "CCN(CC)n1c(N)nc2c1c(=O)n(C)c(=O)n2C"
assay_endpoint = "growth inhibition"
unit_annotation = "%"
reported_value = -6.65

[[record]]
molecule = "O=C(Nc1nnc(C(F)(F)F)s1)c1c(F)cccc1F"
assay_endpoint = "growth inhibition"
unit_annotation = "%"
reported_value = 16.7

[[record]]
molecule = "COC(=O)[C@@H](N1C(=O)c2ccccc2C1=O)C1(C)CC(Cl)=NO1 (stereo partly specified)"
assay_endpoint = "growth inhibition"
unit_annotation = "%"
reported_value = 2.75

[[record]]
molecule = "CC(=O)Cc1ccc(Cl)cc1[N+](=O)[O-]"
assay_endpoint = "growth inhibition"
unit_annotation = "%"
reported_value = 5.95


# input Quickly give me recorded growth inhibition for Cc1ccc(S(=O)(=O)OCC2OC(C)(C)OC2COS(=O)(=O)c2ccc(C)cc2)cc1 (stereo unspecified)
# output -5.65

# input Look up and report measured growth inhibition for this entry: COC(=O)[C@@]12OC[C@]34[C@H]([C@@H](O)[C@@H]1O)[C@@]1(C)CC(=O)C(O)=C(C)[C@@H]1C[C@H]3OC(=O)[C@H](OC(=O)/C=C(\C)C(C)CO)[C@@H]24 (stereo partly specified)
# output -16.7

# input Answer with the recorded growth inhibition of CSc1nc(=O)[nH]c2c1[nH]c(=O)n2-c1ccccc1 only.
# output 5.85

# input For the molecule COc1cc(C(Nc2ccccn2)c2cc3c(cc2O)OCO3)cc(OC)c1O (stereo unspecified) , give its reported growth inhibition.
# output 46.5

# input Please supply the value of reported growth inhibition for the item Cc1ccc(Br)c2c1CCC2=O
# output -5.05

# input Return growth inhibition (reported value) for this molecule: O=C1Nc2n[nH]c(=S)n2NC12c1ccccc1-c1ccccc12
# output -14.2

# input Give the measured growth inhibition for CC(=O)NNC(=O)c1ccc(Br)cc1
# output -16.4

# input Give recorded growth inhibition. CN(C)C(=O)CC(O)c1ccccc1 (stereo unspecified)
# output -9.95

###

Consider the following molecules and their measured growth inhibition readings.
PROCEDURE DETAILS: NCI Yeast Anticancer Drug Screen. Data for the cln2 rad14 strain (AID 165);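 further: 0% = growth equal to vehicle treated cultures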
CONDITION NOTES: S. cerevisiae cln2 rad14 strain, at 50.0 µM, stronger effect = higher value
Protocol: Growth inhibition of yeast strains with defined genetic alterations is measured as a screen for potential anti-cancer activity. Selected strains with alterations in DNA damage repair or cell cycle control were exposed to compounds and growth inhibition was measured relative to vehicle treated controls. The strain used in this assay is cln2 rad14
About 79,000 compounds went through this panel and 15% of them were active in at least one assay; those are over-represented in the sample as a whole.
Output spec: scalar in %, unitless text.

# input Answer with the recorded growth inhibition for the molecule listed here: CC(C)C1CCC2(C)C(CCC3C(C)(CO)CCCC32O)C1 (configuration not stated)
# output 1.45

# input Output growth inhibition of c1ccc(N=C(Nc2ccccc2)N2CCCCC2)cc1
# output 9.85

# input Answer with reported growth inhibition of CN(C)C(=S)/N=C1\SCS(=O)(=O)N1C
# output 7.7

# input Name the recorded growth inhibition of the item CC(O)C([NH-])C(=O)O.CC([NH-])C(=O)O.[Cu+2] (configuration not stated) in your answer.
# output 12.7

# input State its growth inhibition for this molecule: CC1CNCC(C)N1C(=O)c1ccccc1 (configuration not stated)
# output 3.25

###

PROCEDURE DETAILS: NCI Yeast Anticancer Drug Screen. Data for the sgs1 mgt1 strain (AID 161);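 further: 0% = growth of cultures given vehicle only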
CONDITION NOTES: S. cerevisiae sgs1 mgt1 strain, at 50.0 µM, stronger effect = higher value
This is part of a sample that, as a whole, favours compounds with a hit. Of some 79,000 tested, about 15% had one in any assay.
Quick reference: growth inhibition of the listed items.
Express it in %; write the number only.

Some compounds with recorded growth inhibition:
[[record]]
compound = "O=C(NC(=S)Nc1ccc([N+](=O)[O-])cc1Cl)c1ccccc1F"
assay_endpoint = "growth inhibition"
reported_value = 20.1

[[record]]
compound = "CC(NCc1cc(O)c(CNC(C)c2ccccc2)cc1O)c1ccccc1 (centres undefined)"
assay_endpoint = "growth inhibition"
reported_value = 17.1

[[record]]
compound = "O=C(NC(C(=O)O)c1ccccc1)c1ccc([N+](=O)[O-])cc1 (centres undefined)"
assay_endpoint = "growth inhibition"
reported_value = 13.4

[[record]]
compound = "N#Cc1nccc2ccccc12"
assay_endpoint = "growth inhibition"
reported_value = -13.1

[[record]]
compound = "Cc1ccc2c(c1)C1(c3ccc(Cl)c(Cl)c3)Oc3ccc(C)cc3C(c3ccc(Cl)c(Cl)c3)(O2)O1"
assay_endpoint = "growth inhibition"
reported_value = -6.7


Consider the additional compound presented here.
# input Dear colleague, please send me the reported growth inhibition for Nc1cc(F)ccc1CC(=O)O when you can.
# output 15.3

###

PROCEDURE DETAILS: NCI Yeast Anticancer Drug Screen. Data for the mec2-1 strain (AID 157)
CONDITION NOTES: S. cerevisiae mec2-1 strain, at 50.0 µM, stronger effect = higher value
This is part of a sample that, as a whole, favours compounds with a hit. Of some 79,000 tested, about 15% had one in any assay. Activity calls are given as the source filed them. Cut-off read from the data, not from the text of the source: active = growth inhibition above about 70%; inactive = the rest.
ASSAY ENDPOINT: growth inhibition

[[record]]
compound = "O=C(NCCNCCCNC(=O)c1cc(-c2ccccc2)nc2ccccc12)c1cccc(OCc2ccccc2)c1OCc1ccccc1"
assay_endpoint = "growth inhibition"
reported_value = "90.9% (active)"


# input Return value of growth inhibition for input CCC(=O)Oc1ccccc1OC , no commentary.
# output -7.25% (inactive)

# input Answer with the recorded growth inhibition for the compound listed here: S=C=NCCCCCCCCCCCCN=C=S
# output 89.5% (active)

# input Return the recorded growth inhibition value; entry: COC(=O)c1c2c(cc3c1CC1(Cc4ccccc4C1=O)C3)CCC2 (stereo unspecified)
# output 5.2% (inactive)

# input Please give the documented growth inhibition of CCCCCCCCS(=O)(=O)N(C)C
# output -24.9% (inactive)

# input Note down growth inhibition recorded for NNC(=S)N/N=C\c1ccnc2ccccc12
# output 2.85% (inactive)

###

PROCEDURE DETAILS: NCI Yeast Anticancer Drug Screen. Data for the rad50 strain (AID 155);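 further: 0% = growth of vehicle-only cultures of the same strain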
CONDITION NOTES: S. cerevisiae rad50 strain growth inhibition; at 50.0 µM
About 79,000 compounds went through this panel and 15% of them were active in at least one assay; those are over-represented in the sample as a whole. Active and inactive are the calls of the source. Cut-off read from the data, not from the text of the source: active = growth inhibition above about 70%; inactive = the rest.
Hello, when you answer, please use one of the following outcomes: active, inactive

[[record]]
compound = "CCOC(=O)c1nc2c(Cl)c3ncccc3cc2[nH]c1=O"
assigned_label = "inactive"

[[record]]
compound = "Brc1ccc(Br)s1"
assigned_label = "inactive"

[[record]]
compound = "CCN(CC)CCCNc1cc(O)cc2cccnc12"
assigned_label = "inactive"


# input State the result this test recorded for CC(C)CC1OCC(C)(C)C(C(C)C)O1 (configuration not stated) .
# output inactive

# input For O=[N+]([O-])c1ccc(N(CCO)CCO)nc1 , what call appears in the results of this test?
# output inactive

# input I would be grateful if you could indicate the recorded call for O=C(CCc1cc(-c2ccc(F)cc2)n[nH]1)N(Cc1ccccc1)Cc1ccccc1 .
# output inactive

###

Property: growth inhibition; scope: individual molecules
PROCEDURE DETAILS: NCI Yeast Anticancer Drug Screen. Data for the mlh1 rad18 strain (AID 175)
CONDITION NOTES: S. cerevisiae mlh1 rad18 strain growth inhibition; at 50.0 µM; stronger effect = higher value
About 79,000 compounds went through this panel and 15% of them were active in at least one assay; those are over-represented in the sample as a whole. Calls of active or inactive are those of the source. Cut-off read from the data, not from the text of the source: active = growth inhibition above about 70%; inactive = the rest.

Please review the entries below; each comes with its answer.
[[record]]
molecule = "Cc1ccc(Sc2cccc3c2C(=O)c2c(Sc4ccc(C)cc4)cccc2C3=O)cc1"
reported_value = "-11.3% (inactive)"

[[record]]
molecule = "CCOC(=O)c1cc2cc(C)cc(C(=O)c3ccc([N+](=O)[O-])cc3)c2[nH]1"
reported_value = "-16.3% (inactive)"

[[record]]
molecule = "CSc1ccc(NC(=O)Nc2cc(C)c(C)cc2C)cc1"
reported_value = "2.85% (inactive)"


# input Provide growth inhibition value for the following molecule: NC(=S)N/N=C/c1ccc(Cl)cc1Cl
# output 38.7% (inactive)

# input Annotate the molecule N#C/C1=C(\C#N)CCC2(C#N)C3C=CC(O3)C2(C#N)CC1 (stereo not drawn) with its measured growth inhibition.
# output 23.1% (inactive)

# input Given the molecule Cc1cc(C)c(S(=O)(=O)Nc2ccccc2F)c(C)c1 , write its reported growth inhibition.
# output 56.9% (inactive)

# input Find the measured growth inhibition of CCC1(C)CC(=O)N(C/C=C(\C)CCC(=O)O)C(=O)C1 and report it.
# output -7.45% (inactive)

# input Name the recorded growth inhibition of the molecule listed here: CNCC(=O)Nc1ccc2c(c1)C(=O)c1ccc(NC(=O)CNC)cc1C2=O
# output 23.8% (inactive)

# input In one line, give reported growth inhibition of the entry COc1ccc(C(=O)C(c2ccc(OC)cc2)C2(O)C(=O)Nc3ccc([N+](=O)[O-])cc32)cc1 (stereo not drawn) .
# output 1.4% (inactive)

# input For CCCc1c(N)nc(N)nc1N , write its growth inhibition.
# output -7.65% (inactive)

# input Provide measured growth inhibition value, entry: C(=C\P(c1ccccc1)c1ccccc1)/P(/C=C/P(c1ccccc1)c1ccccc1)c1ccccc1
# output -28.1% (inactive)

# input Supply reported growth inhibition belonging to this molecule: N#C/C(=N\NC(=O)c1ccccc1)c1ccccc1
# output 3.5% (inactive)

# input Hello, please tell me recorded growth inhibition for this one: CCOC(=O)C(=O)C(=O)NN(C)C1=NCCN1
# output 2% (inactive)
